Origin of measurements: paper PMC9078235

Entries and their measured EC50 follow.
Biological target: Thrombin (≥1000 NIH U mg^−1 protein) prepared from human plasma (Homo sapiens)
Experiment: chromogenic thrombin activation assay, […] nm
Numeric answer only, unit µM assumed.

> print(dat)
                                   compound                              assay.system  reported
1  O=S(=O)(O)c1cc(O)ccc1O [etamsylate, reference compound]  Thrombin (≥1000 NIH U mg^−1 protein) prepared from human plasma (Homo sapiens)       127
2  CC(=O)Oc1ccc(/C=C/C(=O)Nc2nc3ccccc3s2)cc1  Thrombin (≥1000 NIH U mg^−1 protein) prepared from human plasma (Homo sapiens)       136

EC50 in this record for COc1cc(/C=C/C(=O)Nc2nc3ccccc3s2)cc(OC)c1OC : 232
